Biological target: T1, GDF15-mFC protein (human; mouse, UniProt Q99988 197-308)
T1 construct: extracellular domain;domain: IgG2a-FC; also called GDF15-mFc fusion protein
T1 sequence (looked up): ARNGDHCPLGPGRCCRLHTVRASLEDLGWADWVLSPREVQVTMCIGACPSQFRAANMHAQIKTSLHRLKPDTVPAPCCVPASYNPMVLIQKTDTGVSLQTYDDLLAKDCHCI
Experiment: blocking ELISA, GFRAL-hIgG1 Fc coated (competitor), GDF15-mFC 20 ng/well mixed with antibody
READOUT LABEL: IC50 (µg/mL)
Hi! Could you send only the number? It should be in µg/mL, unit omitted.

{"BINDER": "A5 (murine anti-50G3) (antibody, V domains shown, Purified murine hybridoma antibody) VH: QVTLKESGPGILKPSQTLSLTCSFSGFSLSTSGMGVGWIRQPSGKGLEWLAHIWWNDDKYYNPSLKSHLTISKDTSRNQVFLMITSVDTADTATYYCARGAYDFFDYWGQGTTLTVSS VL: DIVMTQAQNFMSTSVGDRVSVTCKASQNVDTNVAWYQQKPGQSPKALIYSASYRYSGVPDRFTGSGSGTDFTLTISNVQSDDLADYFCQQYNTYPYTFGGGTKLEIK", "UNIT SPEC": "µg/mL", "IC50": 0.232}
{"BINDER": "A1 (murine anti-53E5) (antibody, V domains shown, Purified murine hybridoma antibody) VH: QVQLKESGPGILQPSQTLSLTCSFSGFSLSTSGMGVGWIRQPSGKGLEWLAHILWDDVKRYNPALKSRLTISKDSSNSQIFLKIASVDTADTATYYCVQMAWDWFAYWGQGTLVTVSA VL: DIVMTQAQKFMSTSVEDRVSVTCKASQNVDTNVAWYQQKPGQSPKALIYSASYRSSGVPDRFTGSGSGTDFTLTISNVQSEDLAEYFCQQYHSYPTFGGGTKLEIK", "UNIT SPEC": "µg/mL", "IC50": 0.186}
{"BINDER": "A6 (murine anti-53D10) (antibody, V domains shown, Purified murine hybridoma antibody) VH: QVTLKESGPGIVQPSQPFRLTCTFSGFSLSTSGIGITWIRQPSGKGLEWLATIWWDDDNRYNPSLKSRLTVSKDTSNNQAFLNIITVETADTAIYYCVQSAWDWFAYWGQGTLVTVSA VL: DIVMTQSQKFMSTSVGDRVSVTCKASQNVGTNVAWYQQKSGQSPKALIYSASYRNSGVPDRFTGSGSGTDFTLTISNVESEDLAEYFCQQYNSHPVTFGGGTKLEIK", "UNIT SPEC": "µg/mL", "IC50": 0.213}

Continue with the next binder.
Value of IC50 reported for the binder A2 (murine anti-53A8) (antibody, V domains shown, Purified murine hybridoma antibody; also called murine antibody 53A8) VH: QVQLKESGPGILQPSQTLSLTCSFSGFSLSTSGMGVGWIRQPSGKGLEWLAHIRWDDVKRYNPALKSRLTISKDTSSSQIFLKIASVDTADTATYYCAQMAWDWFAYWGQGTLVTVSA VL: DIVMTQAQKFMSTSVGDRVSVTCKASQNVDTDVAWYQQKPGQSPKALIYSASYRYSGVPDRFTGSGSGTDFTLTITNVQSEDLAEYFCHQYNSYPTFGGGTKLEIK is 0.205
